Entries and their z-score
Test: growth of efflux-deficient E. coli DRC39 – strain DRC39, OD650, 48 h, E. coli filamentation inducers, primary screen (AID 1179);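 note: screen aims at cell division blockers that make cells filament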
Details: E. coli DRC39 delta-acrAB growth, higher = more signal, called active from +8 up or from −8 down

{"Compound": "COC(=O)[C@@]1(Cc2ccccc2)[C@H]2c3cc(C(=O)N4CCCC4)n(Cc4c(CO)[nH]cc(C)c4=O)c3C[C@H]2CN1C(=O)c1ccccc1", "z-score": 0.156}
{"Compound": "O=C1OCC=C[C@H]2OC34C=CCN(Cn5nnc6ccccc65)C(=O)[C@H]3N(CCCCCO)C(=O)[C@@H]4[C@@H]12 (stereo partly drawn)", "z-score": -0.571}
{"Compound": "C=CCC(OC(C)=O)[C@@H]1[C@@H](N(Cc2ccc(-c3cccc(C(F)(F)F)c3)o2)C(=O)c2cccc3ccccc23)c2cc(OCCCO)ccc2N1C(=O)Cc1ccc2ccccc2c1 (stereo partly drawn)", "z-score": 0.235}
